Test system: Abutilon theophrasti
Assay: Post-emergence herbicidal action in greenhouse against ABUTH
Assay type: in vivo
Conditions: 5 g/ha; post-emergence spray, 600 l/ha water; visual rating after ca. 3 weeks vs untreated controls; 100% = plants dead, 0% = like control plants
Excerpt: […]
Would you mind telling me the reported Nachauflaufwirkung gegen ABUTH of each entry?
The response must be a number in % with no trailing unit.

Please tell me: Nachauflaufwirkung gegen ABUTH of COCCOC(=O)C(C)(C)OC(=O)c1cc(-n2c(=O)cc(C(F)(F)F)n(N)c2=O)c(F)cc1Cl [I.1-1] , system Abutilon theophrasti?
100

Subsequent entry: CC(C)=NOC(=O)C(C)(C)OC(=O)c1cc(-n2c(=O)cc(C(F)(F)F)n(N)c2=O)c(F)cc1Cl [I.1-491]
100

Lookup CC(C)(OC(=O)c1cc(-n2c(=O)cc(C(F)(F)F)n(N)c2=O)ccc1Cl)C(=O)OCC#N [I.2-176]
100

----------
System: Lolium rigidum
Test: Post-emergence herbicidal action in greenhouse against LOLRI
Format: in vivo
Conditions: 20 g/ha; post-emergence spray, 600 l/ha water; visual rating after ca. 3 weeks vs untreated controls; 100% = plants dead, 0% = like control plants
MEASURE_NAME: Nachauflaufwirkung gegen LOLRI (%)
Provide only the numeric value, understood in %.

For the compound `CC(C)(OC(=O)c1cc(-n2c(=O)cc(C(F)(F)F)n(N)c2=O)c(F)cc1Cl)C(=O)OCC#N` , what Nachauflaufwirkung gegen LOLRI is on record?
80

# repeat for `CC(C)=NOC(=O)C(C)(C)OC(=O)c1cc(-n2c(=O)cc(C(F)(F)F)n(N)c2=O)c(F)cc1Cl`
80

Next compound: `COCCOC(=O)C(C)(C)OC(=O)c1cc(-n2c(=O)cc(C(F)(F)F)n(N)c2=O)c(F)cc1Cl`
90

Consider next the compound `CC(C)(OC(=O)c1cc(-n2c(=O)cc(C(F)(F)F)n(N)c2=O)c(F)cc1Cl)C(=O)OCc1ccccn1` in the same way.
90

// provenance: patent EP4230620A1
